MEASURED ON: Cytochrome P450 2C9 (Homo sapiens) (UniProt P11712)
Sequence (P11712 whole entry, looked up): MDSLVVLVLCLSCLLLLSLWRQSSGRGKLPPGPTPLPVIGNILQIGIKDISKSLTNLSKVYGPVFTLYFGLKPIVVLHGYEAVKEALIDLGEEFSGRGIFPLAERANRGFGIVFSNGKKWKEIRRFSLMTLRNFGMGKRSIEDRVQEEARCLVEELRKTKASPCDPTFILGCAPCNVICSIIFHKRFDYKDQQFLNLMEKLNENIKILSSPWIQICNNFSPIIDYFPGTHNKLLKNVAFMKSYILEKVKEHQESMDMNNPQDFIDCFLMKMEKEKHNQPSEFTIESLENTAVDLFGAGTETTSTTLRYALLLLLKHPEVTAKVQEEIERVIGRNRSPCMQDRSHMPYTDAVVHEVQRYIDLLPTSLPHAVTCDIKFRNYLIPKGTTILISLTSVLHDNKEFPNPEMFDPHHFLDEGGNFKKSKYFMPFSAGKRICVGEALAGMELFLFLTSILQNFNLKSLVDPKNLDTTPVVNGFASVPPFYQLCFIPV
METHOD NOTES: Cytochrome P450 Family 2 Subfamily C Member 9 (CYP2C9) small molecule antagonists: luciferase reporter qHTS assay (AID 1671198); further: nearly all actives have a fitted effect of over 50% in size
TEST CONDITIONS: P450-Glo CYP2C9 enzyme assay, luciferin luminescence; series mostly up to 115 µM
Records with an inconclusive call do not appear. The source made the active and inactive calls. The call rests on the fitted dose curve; in most records, active means well fitted inhibition curve with a large enough effect in the repeat runs; inconclusive means weak or mixed curves; inactive means no such curve, though single readings can be large or run the other way.
Choose the fitting class; nothing outside active, inactive is accepted.

Query :: Call for entry `CCC/C=C(\C=O)CC` :
Result :: active

Query :: Call for entry `CN(C)CC/C=C1/c2ccccc2COc2ccc(CC(=O)O)cc21` :
Result :: inactive

Query :: Call for entry OCC(O)CN1CCN(c2ccccc2)CC1 (stereo unspecified) :
Result :: inactive

Query :: Call for entry CCCCOCC(C)O (stereo unspecified) :
Result :: inactive

Query :: Call for entry `C=CCOC(=O)CCCCCC` :
Result :: inactive

Query :: Call for entry `CC(=O)CC(=O)Nc1ccc(C)cc1C` :
Result :: active

Query :: Call for entry `COc1cc(/C=C/C(N)=O)cc(OC)c1OC` :
Result :: inactive

Query :: Call for entry `O=C(O)c1cc2ccccc2nc1C(=O)O` :
Result :: inactive

Query :: Call for entry `CC(CO)(CO)CO` :
Result :: inactive

Query :: Call for entry `CCOc1cccc(N)c1` :
Result :: active

Query :: Call for entry `N#Cc1cscn1` :
Result :: inactive

Query :: Call for entry `CCCSSCCC` :
Result :: inactive

Query :: Call for entry `[O-][n+]1cccc(/C(Cl)=N/OC[C@@H](O)CN2CCCCC2)c1` :
Result :: inactive

Query :: Call for entry CCCC(=O)OCCC(C)CCC=C(C)C (stereo unspecified) :
Result :: active

Query :: Call for entry `CCCCCC/C=C/C(=O)OC` :
Result :: inactive

Query :: Call for entry `CC(C)(C)NC[C@H](O)COc1cccc2c1CCCC2=O` :
Result :: inactive
